metric: AC50 (µM)
Numeric only. Scale: µM

[ask] // lookup AC50 | system=human CYP1A2 (Homo sapiens, UniProt P05177) | key= `C=C(C)C(=O)OCC[N+](C)(C)C.[Cl-]`
[reply] 10.5

[ask] // lookup AC50 | system=human CYP1A2 (Homo sapiens, UniProt P05177) | key= CCOC(=O)C(C#N)=C(c1ccccc1)c1ccccc1 [Ethyl 2-cyano-3,3-diphenylacrylate]
[reply] 1.87

[ask] // lookup AC50 | system=human CYP1A2 (Homo sapiens, UniProt P05177) | key= `N.N.O=C([O-])C1(C(=O)[O-])CCC1.[Pt+2]`
[reply] 15.6

[ask] // lookup AC50 | system=human CYP1A2 (Homo sapiens, UniProt P05177) | key= CC(C)COC(=O)C=Cc1ccccc1 [Isobutyl 3-phenylacrylate]
[reply] 17

[ask] // lookup AC50 | system=human CYP1A2 (Homo sapiens, UniProt P05177) | key= COC(=O)Cc1cccc2ccccc12 [Methyl 1-naphthaleneacetate]
[reply] 18.8

[ask] // lookup AC50 | system=human CYP1A2 (Homo sapiens, UniProt P05177) | key= CCNS(=O)(=O)c1ccc(C)cc1 [N-Ethyl-4-methylbenzenesulfonamide]
[reply] 41.1

[ask] // lookup AC50 | system=human CYP1A2 (Homo sapiens, UniProt P05177) | key= O=C(Cc1ccccc1)OCc1ccccc1 [Benzyl phenylacetate]
[reply] 12.7

[ask] // lookup AC50 | system=human CYP1A2 (Homo sapiens, UniProt P05177) | key= `Cl.ClCCCN1CCN(c2cccc(Cl)c2)CC1`
[reply] 16.1

[ask] // lookup AC50 | system=human CYP1A2 (Homo sapiens, UniProt P05177) | key= `CCOC(=O)c1ccc(NC(=O)CN2CCCCC2)cc1`
[reply] 22.2

[ask] // lookup AC50 | system=human CYP1A2 (Homo sapiens, UniProt P05177) | key= COc1ccc(C(=O)c2ccc(O)cc2)c(OC)c1 [2,4-Dimethoxy-4'-hydroxy benzophenone]
[reply] 49.2

###

Target: human CYP2D6 (Homo sapiens)
Sequence (P10635 whole entry): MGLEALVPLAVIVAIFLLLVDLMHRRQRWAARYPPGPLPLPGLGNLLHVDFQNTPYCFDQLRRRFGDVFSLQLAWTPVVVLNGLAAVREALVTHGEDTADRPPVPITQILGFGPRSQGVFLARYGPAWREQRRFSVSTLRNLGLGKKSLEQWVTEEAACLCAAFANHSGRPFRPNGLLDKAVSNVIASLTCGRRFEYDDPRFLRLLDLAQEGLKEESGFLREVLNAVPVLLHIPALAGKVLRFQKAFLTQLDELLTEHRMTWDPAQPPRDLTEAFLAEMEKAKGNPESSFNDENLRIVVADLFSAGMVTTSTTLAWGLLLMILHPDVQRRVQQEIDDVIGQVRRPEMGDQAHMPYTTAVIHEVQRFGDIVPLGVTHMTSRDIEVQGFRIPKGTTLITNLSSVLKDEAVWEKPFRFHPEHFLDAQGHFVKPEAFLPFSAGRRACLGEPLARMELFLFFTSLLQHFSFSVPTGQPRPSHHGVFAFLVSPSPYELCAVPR
Details: human
Kindly state CYP2D6 Efficacy (in parenthesis) for each of the entries shown.

[ask] What value of CYP2D6 Efficacy (in parenthesis) has been reported for the following compound? `Clc1ccc(C(c2ccc(Cl)cc2)C(Cl)Cl)cc1`
[reply] 59 ± 16.44 (-79 ± 23) %

[ask] What value of CYP2D6 Efficacy (in parenthesis) has been reported for the following compound? `O=S(=O)(Oc1ccc(Cl)cc1)c1ccc(Cl)cc1`
[reply] 21.56 ± 9.06 (-95 ± 15) %

[ask] What value of CYP2D6 Efficacy (in parenthesis) has been reported for the following compound? `CCOP(=S)(OCC)SCSc1ccc(Cl)cc1`
[reply] 13.25 ± 2.38 (-84 ± 7) %

[ask] What value of CYP2D6 Efficacy (in parenthesis) has been reported for the following compound? `CN(C)CCCSc1ccccc1NC(=O)/C=C/c1ccccc1`
[reply] 0.52 ± 0.22 (-96 ± 14) %

[ask] What value of CYP2D6 Efficacy (in parenthesis) has been reported for the following compound? CC1(C)CCC(Cc2ccc(Cl)cc2)C1(O)Cn1cncn1 (stereo not shown)
[reply] 41.91 ± 7.54 (-75 ± 4) %

[ask] What value of CYP2D6 Efficacy (in parenthesis) has been reported for the following compound? OC(c1ccc(F)cc1)(c1cncnc1)c1ccccc1Cl (stereo not shown)
[reply] 35.73 ± 4.11 (-53 ± 5) %

[ask] What value of CYP2D6 Efficacy (in parenthesis) has been reported for the following compound? Clc1ccc(COC(Cn2ccnc2)c2ccc(Cl)cc2Cl)cc1 (stereo not shown) [Econazole nitrate]
[reply] 0.4 ± 0.23 (-105 ± 10) %

[ask] What value of CYP2D6 Efficacy (in parenthesis) has been reported for the following compound? Clc1ccc(C(c2ccccc2Cl)C(Cl)Cl)cc1 (stereo not shown)
[reply] 32.45 ± 5.84 (-38 ± 9) %

[ask] What value of CYP2D6 Efficacy (in parenthesis) has been reported for the following compound? `COP(=S)(OC)SCn1nnc2ccccc2c1=O`
[reply] 55.48 ± 13.48 (-75 ± 13) %

[ask] What value of CYP2D6 Efficacy (in parenthesis) has been reported for the following compound? `COc1c2ccoc2cc2oc(=O)ccc12`
[reply] 0.1 ± 0.02 (11 ± 2) %

###

Target: UniProtKB P08684
Sequence (P08684 whole entry): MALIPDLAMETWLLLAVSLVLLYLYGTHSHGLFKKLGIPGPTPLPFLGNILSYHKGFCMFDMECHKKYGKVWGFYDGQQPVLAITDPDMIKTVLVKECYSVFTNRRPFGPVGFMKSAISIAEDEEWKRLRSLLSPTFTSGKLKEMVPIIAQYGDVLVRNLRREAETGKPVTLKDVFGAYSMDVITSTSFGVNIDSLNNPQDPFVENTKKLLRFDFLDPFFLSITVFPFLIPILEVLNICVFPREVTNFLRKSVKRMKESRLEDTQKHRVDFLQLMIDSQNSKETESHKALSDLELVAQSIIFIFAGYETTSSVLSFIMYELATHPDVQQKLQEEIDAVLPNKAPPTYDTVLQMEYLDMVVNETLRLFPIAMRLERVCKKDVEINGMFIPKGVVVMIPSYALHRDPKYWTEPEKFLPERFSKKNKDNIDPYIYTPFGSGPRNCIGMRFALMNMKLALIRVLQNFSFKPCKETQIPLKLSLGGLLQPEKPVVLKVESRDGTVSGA
AC50 vs 60 µM: less than gives Fulfilled; not less than gives Not fulfilled.

[ask] Is AC50 of `O=C(O)C(F)(F)C(F)(F)C(F)(F)C(F)(F)C(F)(F)C(F)(F)C(F)(F)F` strictly below 60 µM?
[reply] Not fulfilled

[ask] Is AC50 of `C=C(C)C(=O)OCC[N+](C)(C)C.[Cl-]` strictly below 60 µM?
[reply] Fulfilled

[ask] Is AC50 of C=C(C)C(=O)OCCCCCCOC(=O)C(=C)C [1,6-Hexanediol dimethacrylate] strictly below 60 µM?
[reply] Fulfilled

[ask] Is AC50 of CCCCCCCCCCCCCOP(=O)(O)O [Monotridecyl phosphate] strictly below 60 µM?
[reply] Not fulfilled

[ask] Is AC50 of `CCCOc1ccc2c(c1)CC[C@@H]1[C@@H]2CC[C@]2(C)[C@@H](OC)CC[C@@H]12` strictly below 60 µM?
[reply] Fulfilled

[ask] Is AC50 of `Cl.O.c1cnc2c(c1)ccc1cccnc12` strictly below 60 µM?
[reply] Fulfilled

[ask] Is AC50 of COC(=O)Cc1cccc2ccccc12 [Methyl 1-naphthaleneacetate] strictly below 60 µM?
[reply] Fulfilled

[ask] Is AC50 of CC(=O)O[C@@H]1C[C@H]2[C@@H]3CCc4cc(OC(=O)c5ccccc5)ccc4[C@H]3CC[C@]2(C)[C@H]1OC(C)=O [Estriol benzoate diacetate] strictly below 60 µM?
[reply] Fulfilled

[ask] Is AC50 of COC(=O)CCCCCCCC(=O)OC [Dimethyl nonanedioate] strictly below 60 µM?
[reply] Fulfilled

###

Kindly state pIC50 for each of the entries shown.
Molecular target: human CYP2D6 (Homo sapiens)
Assay: biochemical
Conditions: CYP2D6 IC50
Structures can show the parent of a compound that is named as a salt.
The scale used: pIC50 is minus the common logarithm of the concentration in molar units.

[ask] What value of pIC50 has been reported for the following compound? `CS(=O)(=O)c1ccc(-c2cn3ccccc3n2)cc1`
[reply] 4.62

[ask] What value of pIC50 has been reported for the following compound? `c1ccc2c(c1)-c1cccc3cccc-2c13`
[reply] 4.67

[ask] What value of pIC50 has been reported for the following compound? CC[n+]1c(-c2ccccc2)c2cc(N)ccc2c2ccc(N)cc21 [Ethidium bromide]
[reply] 6.03

[ask] What value of pIC50 has been reported for the following compound? `CN1CCC(N(Cc2cccs2)c2ccccc2)CC1`
[reply] 6.28

[ask] What value of pIC50 has been reported for the following compound? c1ccc2c(c1)c1cccc3ccc4cccc2c4c31 [Benzo(e)pyrene]
[reply] 4.26

[ask] What value of pIC50 has been reported for the following compound? `c1ccc2cc3c(ccc4ccccc43)cc2c1`
[reply] 4.30

[ask] What value of pIC50 has been reported for the following compound? O=c1[nH]c2ccccc2n1CCCN1CCN(C(c2ccccc2)c2ccccc2)CC1 [Oxatomide]
[reply] 6.21

[ask] What value of pIC50 has been reported for the following compound? COC1CC(=C(c2cccs2)c2cccs2)C[N+](C)(C)C1 (centres unmarked) [Timepidium bromide]
[reply] 6.54

[ask] What value of pIC50 has been reported for the following compound? CCN(CC)CCOC(=O)C(c1ccccc1)C1CCCCC1 (centres unmarked) [Drofenine hydrochloride]
[reply] 5.92

[ask] What value of pIC50 has been reported for the following compound? `Cc1cc(O)c2ccccc2c1O`
[reply] 4.71

[ask] What value of pIC50 has been reported for the following compound? CCCN1C[C@H](CSC)C[C@@H]2c3cccc4[nH]cc(c34)C[C@H]21 [Pergolide methanesulfonate]
[reply] 6.82

[ask] What value of pIC50 has been reported for the following compound? CC(NCCC(c1ccccc1)c1ccccc1)c1ccccc1 (centres unmarked) [Fendiline hydrochloride]
[reply] 6.64

[ask] What value of pIC50 has been reported for the following compound? ClC1=C(Cl)C2(Cl)C3C4C=CC(C4)C3C1(Cl)C2(Cl)Cl (centres unmarked)
[reply] 4.35

[ask] What value of pIC50 has been reported for the following compound? `CCN(CC)CCNc1ccc(CO)c2sc3ccccc3c(=O)c12`
[reply] 5.42

[ask] What value of pIC50 has been reported for the following compound? CCOC(=O)CC(SP(=S)(OC)OC)C(=O)OCC (centres unmarked)
[reply] 4.24

[ask] What value of pIC50 has been reported for the following compound? CCN(CCCc1ccccc1)CCCc1ccccc1 [Alverine citrate]
[reply] 6.06

[ask] What value of pIC50 has been reported for the following compound? CC(Cc1ccccc1)N(C)Cc1ccco1 (centres unmarked)
[reply] 6.07

[ask] What value of pIC50 has been reported for the following compound? CCCCC(CC)CN1CN(CC(CC)CCCC)CC(C)(N)C1 (centres unmarked)
[reply] 6.32

[ask] What value of pIC50 has been reported for the following compound? O=C1NCN(c2ccccc2)C12CCN(CC1COc3ccccc3O1)CC2 (centres unmarked)
[reply] 6.72

[ask] What value of pIC50 has been reported for the following compound? CCN(CC)CCOC(=O)C(Cc1cccc2ccccc12)CC1CCCO1 (centres unmarked) [Nafronyl oxalate]
[reply] 5.53
